test system: Acinetobacter baumannii; assay: Antibacterial activity against clinically isolated Acinetobacter baumannii RBRJ027 assessed as inhibition of bacterial growth at 50 uM measured after 48 hrs by agar well diffusion method; type: functional; conditions: read-out: IZ
Reported zone of inhibition at 50 µM is given for each of the following compounds.
Number in mm, nothing else.

Worked cases, answers included:
{"Smiles Input": "Cc1ccc(C(C)C)c(OCc2cn(CCCCN3C(=O)C(=O)c4ccccc43)nn2)c1", "Readout Unit": "mm", "zone of inhibition at 50 µM": 11.2}
{"Smiles Input": "Cc1ccc(C(C)C)c(OCc2cn(CCCN3C(=O)C(=O)c4cc(I)ccc43)nn2)c1", "Readout Unit": "mm", "zone of inhibition at 50 µM": 11.5}
{"Smiles Input": "Cc1ccc(C(C)C)c(OCc2cn(CCCCN3C(=O)C(=O)c4cc(Br)ccc43)nn2)c1", "Readout Unit": "mm", "zone of inhibition at 50 µM": 10.7}
{"Smiles Input": "Cc1ccc(C(C)C)c(OCc2cn(CCCN3C(=O)C(=O)c4cc(F)ccc43)nn2)c1", "Readout Unit": "mm", "zone of inhibition at 50 µM": 14.7}
{"Smiles Input": "Cc1ccc(C(C)C)c(OCc2cn(CCN3C(=O)C(=O)c4cc(I)ccc43)nn2)c1", "Readout Unit": "mm", "zone of inhibition at 50 µM": 12.1}
{"Smiles Input": "COc1ccc2c(c1)C(=O)C(=O)N2CCCCn1cc(COc2cc(C)ccc2C(C)C)nn1", "Readout Unit": "mm", "zone of inhibition at 50 µM": 10.2}

Attention now shifts to the item below.
## Task Give the measured zone of inhibition at 50 µM of Cc1ccc(C(C)C)c(OCc2cn(CCN3C(=O)C(=O)c4cc(Cl)ccc43)nn2)c1 .
## Result 12

* * *

test system: Klebsiella pneumoniae; assay: Antibacterial activity against clinically isolated Klebsiella pneumoniae RBRJ019 assessed as inhibition of bacterial growth at 50 uM measured after 48 hrs by agar well diffusion method; type: functional; details: read-out: IZ
Parameter Measured: zone of inhibition at 50 µM (mm)
Express the result in mm but write the number alone.

Some solved cases for reference:
{"Smiles Input": "Cc1ccc(C(C)C)c(OCc2cn(CCCN3C(=O)C(=O)c4cc(Cl)ccc43)nn2)c1", "Target Entity": "Klebsiella pneumoniae", "zone of inhibition at 50 µM (mm)": 15.1}
{"Smiles Input": "Cc1ccc(C(C)C)c(OCc2cn(CCCN3C(=O)C(=O)c4cc(Br)ccc43)nn2)c1", "Target Entity": "Klebsiella pneumoniae", "zone of inhibition at 50 µM (mm)": 13.2}
{"Smiles Input": "COc1ccc2c(c1)C(=O)C(=O)N2CCn1cc(COc2cc(C)ccc2C(C)C)nn1", "Target Entity": "Klebsiella pneumoniae", "zone of inhibition at 50 µM (mm)": 14.6}
{"Smiles Input": "Cc1ccc(C(C)C)c(OCc2cn(CCN3C(=O)C(=O)c4ccccc43)nn2)c1", "Target Entity": "Klebsiella pneumoniae", "zone of inhibition at 50 µM (mm)": 16.4}
{"Smiles Input": "Cc1ccc(C(C)C)c(OCc2cn(CCCN3C(=O)C(=O)c4cc(C)ccc43)nn2)c1", "Target Entity": "Klebsiella pneumoniae", "zone of inhibition at 50 µM (mm)": 18.5}

## Task Which zone of inhibition at 50 µM is listed for Cc1ccc(C(C)C)c(OCc2cn(CCCCN3C(=O)C(=O)c4cc(C)ccc43)nn2)c1 ?
## Result 13.2

## Task // query: Cc1ccc(C(C)C)c(OCc2cn(CCCCN3C(=O)C(=O)c4cc(F)ccc43)nn2)c1
## Result 13.2

## Task Cool, now Cc1ccc(C(C)C)c(OCc2cn(CCCCN3C(=O)C(=O)c4cc(I)ccc43)nn2)c1
## Result 10.7

## Task Also Cc1ccc(C(C)C)c(OCc2cn(CCCCN3C(=O)C(=O)c4cc(Br)ccc43)nn2)c1 , if possible.
## Result 11.4

## Task Again, but for Cc1ccc(C(C)C)c(OCc2cn(CCN3C(=O)C(=O)c4cc(F)ccc43)nn2)c1
## Result 14.2

## Task Try the compound Cc1ccc(C(C)C)c(OCc2cn(CCN3C(=O)C(=O)c4cc(C)ccc43)nn2)c1
## Result 15.4
